Test system: Wolbachia pipientis
Experiment: Anti-Wolbachia Cell-Based Screen
Assay type: functional
Design: scale not given: in the data most compounds retested in dose-response had high values
Settings: 5 µM
About 13,000 (27%) of roughly 48,000 compounds showed an effect of 50% or more. Some of the results follow.
quantityMeasured: Percent Effect
Give the number first and the unit second.

Worked set:
{"compound": "Cc1cccc(CN2CCN3C(=O)NC[C@H]3C2)n1", "readoutValue": "-6.805%"}
{"compound": "O=C(O)C(F)(F)F.O=C(O)C(F)(F)F.O=C(O)C(F)(F)F.c1ccc(CN2CC[C@@H]3[C@@H](CO[C@@H]3CNc3ncccn3)C2)nc1", "readoutValue": "94.77%"}
{"compound": "NCC1(c2cccc(C(F)(F)F)c2)CCCC1", "readoutValue": "-13.69%"}
{"compound": "O=C(CC1CC1)N[C@@H]1CN(Cc2ccccn2)C[C@@H]2CCCO[C@@H]21.O=C(O)C(F)(F)F.O=C(O)C(F)(F)F", "readoutValue": "-3.839%"}
{"compound": "CN(C)Cc1cncc2c1CCN(C1CCOCC1)C2.Cl.Cl.Cl", "readoutValue": "89.69%"}
{"compound": "COc1ccccc1OCCCN1CC=C(c2cnn(C)c2)CC1", "readoutValue": "5.6%"}
{"compound": "CNc1nccnc1C1CCN(C(C)C)CC1", "readoutValue": "92.81%"}
{"compound": "Fc1cnc(N2CCOCC3(CCCNC3)C2)nc1 (stereo unspecified)", "readoutValue": "-3.763%"}

Entry `Cc1cccc(CO[C@@H]2CC[C@H]3[C@H]2OCCN3Cc2nccs2)n1.O=C(O)C(F)(F)F.O=C(O)C(F)(F)F` ; assay system Wolbachia pipientis; Percent Effect recorded at -8.72%

Entry `CSc1ncc(CN2C[C@H]3CC[C@@H]2CN(C2CCOCC2)C3)cn1` ; assay system Wolbachia pipientis; Percent Effect recorded at -8.939%

Entry `O=C(O)C(F)(F)F.O=C(O)C(F)(F)F.O=C(O)C(F)(F)F.c1cncc(CN2CCO[C@H]3[C@H](OCCN4CCCC4)CC[C@@H]32)c1` ; assay system Wolbachia pipientis; Percent Effect recorded at 103%

Entry Cc1nn(C)c2ncc(S(=O)(=O)N3CCCN4CCCC4C3)cc12 (stereo unspecified) ; assay system Wolbachia pipientis; Percent Effect recorded at -8.04%

Entry `O=C(O)C(F)(F)F.O=C(O)C(F)(F)F.c1ccc(CO[C@H]2CC[C@H]3[C@H]2OCCN3Cc2nccs2)nc1` ; assay system Wolbachia pipientis; Percent Effect recorded at -10.71%

Entry `O=C(O)C(F)(F)F.O=C(O)C(F)(F)F.c1cc(CO[C@H]2CC[C@H]3[C@H]2OCCN3Cc2nccs2)ccn1` ; assay system Wolbachia pipientis; Percent Effect recorded at 124.9%

Entry `CNCCc1nc2cc(Cl)ccc2[nH]1.Cl.Cl` ; assay system Wolbachia pipientis; Percent Effect recorded at 8.686%

Entry `CC[C@H](N)Cn1nc(-c2cccs2)oc1=O.Cl` ; assay system Wolbachia pipientis; Percent Effect recorded at -4.464%

Entry `CC(C)N(C)Cc1cncc2c1CCN(C1CCOCC1)C2.Cl.Cl.Cl` ; assay system Wolbachia pipientis; Percent Effect recorded at 97.34%

meta.source: ChEMBL document CHEMBL3988442
